experiment: Cytotoxicity against THP-1 macrophages (MTT); format: cell-based; conditions: human, THP-1-derived macrophages; THP-1 macrophage-like cells; NOAEL = no observed adverse effect level; read-out: CC50 ± SD or NOAEL
experimental.readout: CC50

[ask] What value of measured CC50 is listed for O=C1CC(c2ccc(O)cc2)Oc2ccc(O)cc21 (stereo not drawn) ?
[reply] > 100 µM

[ask] What value of measured CC50 is listed for O=C1CC(c2cccc(O)c2)Oc2ccc(O)cc21 (stereo not drawn) ?
[reply] > 100 µM

[ask] What value of measured CC50 is listed for O=C1CC(c2ccc(O)c(O)c2)Oc2ccc(O)cc21 (stereo not drawn) ?
[reply] > 100 µM
